Target: T1, hCD19-his (human CD19 recombinant protein, Pro20-Lys291, His tag at C-terminus) (human, UniProt P15391 20-291)
T1 construct: range 20-291; also called human CD19-His
T1 sequence (looked up): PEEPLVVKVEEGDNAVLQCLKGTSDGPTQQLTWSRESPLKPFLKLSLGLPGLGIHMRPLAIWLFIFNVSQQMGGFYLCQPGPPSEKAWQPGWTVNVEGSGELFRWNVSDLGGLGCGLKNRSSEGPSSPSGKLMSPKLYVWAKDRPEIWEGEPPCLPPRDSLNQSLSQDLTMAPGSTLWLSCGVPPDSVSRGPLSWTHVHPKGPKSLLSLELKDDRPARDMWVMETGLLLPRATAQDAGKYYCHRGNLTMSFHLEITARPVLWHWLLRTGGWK
Assay: ELISA, coated hCD19-His
Procedure: The antibodies were screened by ELISA according to Example 2. Briefly, […] of hCD19-His (ACRO) were spread and incubated. The purified antibodies were serially diluted to bind the incubated antigen. The binding signal of each antibody could be detected with HRP-labeled goat anti-rat Fc antibody. Graphpad Prism software was used to calculate the fitting data.
The following binders are shown together with reported EC50 values.
Note to self: number, then unit, no commentary.

Dear colleague, please send me the reported EC50 for 27F11 (hybridoma antibody) (antibody, V domains shown, hybridoma mAb from H2L2 mouse (human variable, rat constant regions)) VH: QVQLVESGGGVVQPGRSLRLSCAASGFTFSRHGMHWVRQAPGKGLEWVAVIYYDGSNKYYVDSVKGRFTISRDNSKNTLDLQMNSLRAEDTAVYYCARRSITWNGAFDIWGQGTMVTVSS VL: DIQMTQSPSTLSASVGDRVTISCRASQSISSWLAWYQQKPGKAPKLLIYKASSLESGVPSRFSGSGSGTEFTLTISSLQPDDFATYYCQQYNSAYTFGQGTKLEIK when you can.
0.0672 µg/mL

State its EC50: 31A2 (hybridoma antibody) (antibody, V domains shown, hybridoma mAb from H2L2 mouse (human variable, rat constant regions)) VH: QVQLVESGGGVVQPGRSLRLSCAASGFTFSRHGMHWVRQAPGKGLEWVAVIWYDGSNKYYVDSVKGRFTISRDNSKNTLDLQMNSLRAEDTAVYYCARRSITWDGAFDIWGQGTMVTVSS VL: DIQMTQSPSTLSASVGDRVTISCRASQSISSWLAWYQQKPGKAPKLLIYKASSLESGVPSRFSGSGSGTEFTLTISSLQPDDFATYYCQQYNSAYTFGQGTKLEIK
0.0249 µg/mL

State its EC50 for this binder: 15F2 (hybridoma antibody) (antibody, V domains shown, hybridoma mAb from H2L2 mouse (human variable, rat constant regions)) VH: QVQLVESGGGVVQPGRSLRLSCAASGFTFSRHGMHWVRQAPGKGLEWVAVIWYDGSNKYYVDSVKGRFTISRDNSKNTLDLQMNSLRAEDTAVYYCARRSITWDGAFDIWGQGTMVTVSS VL: DIQMTQSPSTLSASVGDRVTVTCRASQSIRSWLAWYQQKPGKAPKLLIYKASSLESGVPSRFSGSGSGTEFTLTISSLQPDDFATYYCQQYNSAYTFGQGTKLEIK
0.0287 µg/mL

Hello, the source for this data is patent US20210238253A1, in case you need it.
